Cited source: patent US7928099B2

# tgt: human recombinant 5-HT2c receptor (Homo sapiens)
# Construct: expressed in transfected cells; host or cells: CHO K1 (Chinese hamster ovary), stably transfected
# Sequence (P28335 33-458): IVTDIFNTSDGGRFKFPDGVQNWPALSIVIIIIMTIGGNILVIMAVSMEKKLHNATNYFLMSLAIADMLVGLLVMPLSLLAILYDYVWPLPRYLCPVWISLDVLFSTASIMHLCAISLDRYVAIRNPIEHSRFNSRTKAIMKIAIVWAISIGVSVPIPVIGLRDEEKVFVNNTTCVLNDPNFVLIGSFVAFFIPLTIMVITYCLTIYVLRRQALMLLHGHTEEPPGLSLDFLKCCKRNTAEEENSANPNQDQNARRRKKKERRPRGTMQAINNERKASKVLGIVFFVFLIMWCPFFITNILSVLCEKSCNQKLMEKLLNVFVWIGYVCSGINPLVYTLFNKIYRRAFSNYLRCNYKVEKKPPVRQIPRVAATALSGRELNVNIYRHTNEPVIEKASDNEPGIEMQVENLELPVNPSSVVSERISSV
# experiment-summary: FLIPR fluorescent Ca2+ mobilisation agonist assay in CHO K1 cells (Method 1)
# Type: cell-based
# test-parameters: CHO-K1, efficacy, percentage of mean maximal response to 10 μM 5-HT
Where a name gives a salt, the structure may show the parent alone.
Categorize each record by its Emax using c1 = under 70%, c2 = from 70% up to 80%, c3 = 80% and over

Solved entries:
CN(CC1CC1)c1nc(N2CCSCC2)nc2c1CCNCC2 [Example 90]: c3
OC1CCN(c2nc(Cc3ccccc3)nc3c2CCNCC3)CC1 [Example 38, hydrochloride]: c1
C[C@H]1COCCN1c1nc(Cc2ccccc2)nc2c1CCNCC2 [Example 45, hydrochloride]: c3

Data request: Class label required: Cc1cccc(Cc2ncc3c(n2)CCNCC3)c1 [Example 65]
Data returned: c3
